Where these numbers come from: PubChem BioAssay (EPA / NIEHS)

test system: Androgen Receptor/SRC-1 Co-activator, AR (gene 367)
assay overview: OT_AR_ARSRC1_0480: Odyssey Thera (OT) 8-hour HEK293T Protein-Complementation Assay for Androgen Receptor/SRC-1 Co-activator (AID 2283354);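 further: hits raise the complementation signal above DMSO so AC50 marks enhancers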
Experimental: OT_AR_ARSRC1_0480 is a cell-based, single-readout assay that uses HEK293T, a human kidney cell line, with measurements taken at 8 hours after chemical dosing in a 384-well plate.OT_AR_ARSRC1_0480 is one of one assay component(s) measured or calculated from the OT_AR_ARSRC1_0480 assay. […] This assay endpoint, OT_AR_ARSRC1_0480, was analyzed in the positive analysis fitting direction relative to DMSO as the negative control and baseline of activity. […]
Inconclusive results are not listed. Activity calls are given as the source filed them. How the source made its calls: active means hit-call score of the fitted dose curve at least 0.9, where 1 is the maximum; inconclusive means response in the unintended direction; inactive means score below 0.9.
Please reply with one of these outcomes: active, inactive

Observe how each entry below is paired with its result.
| compound | test system | assigned label |
| --- | --- | --- |
| C[C@H]1[C@H](c2ccc(Cl)cc2)SC(=O)N1C(=O)NC1CCCCC1 | Androgen Receptor/SRC-1 Co-activator, AR (gene 367) | inactive |
| Cc1[nH]c(=O)n(C(C)(C)C)c(=O)c1Cl | Androgen Receptor/SRC-1 Co-activator, AR (gene 367) | inactive |
| O=[N+]([O-])c1c(Cl)c(Cl)c(Cl)c(Cl)c1Cl | Androgen Receptor/SRC-1 Co-activator, AR (gene 367) | inactive |
| O=S1OCC2C(CO1)C1(Cl)C(Cl)=C(Cl)C2(Cl)C1(Cl)Cl (stereo not given) | Androgen Receptor/SRC-1 Co-activator, AR (gene 367) | active |

Could you please tell me the result logged for `Oc1ccc(Cl)cc1Cc1ccccc1` in this assay? active

---

assay overview: CCTE_Mundy_HCI_Cortical_Synap_Neur_Matur_NeuriteLength: CCTE's Synaptogenesis and Neurite Maturation Assay in rat cortical cells for Neurite Length, Mundy Lab (AID 2284214)
Calls of active or inactive are those of the source. Rule for the calls: active = hit-call score of the fitted dose curve at least 0.9, where 1 is the maximum; inactive = score below 0.9.
Please reply with one of these outcomes: T = active, F = inactive

Observe how each entry below is paired with its result.
| smiles repr | assigned label |
| --- | --- |
| COP(=O)(OC)OC=C(Cl)Cl | F |
| O=[N+]([O-])/N=C1\NCCN1Cc1ccc(Cl)nc1 | F |
| CC(C)N(C(=O)COc1nnc(C(F)(F)F)s1)c1ccc(F)cc1 | F |
| COP(=S)(OC)Oc1ccc([N+](=O)[O-])cc1 | T |
| O=C(O)C(F)(F)C(F)(F)C(F)(F)C(F)(F)C(F)(F)C(F)(F)C(F)(F)F | F |

Next:
Could you please tell me the result logged for `CCC(C)(C)C(=O)OC1=C(c2ccc(Cl)cc2Cl)C(=O)OC12CCCCC2` in this assay? F

---

Read-out: Cytochrome P450 (CYP1A2), CYP1A2 (gene 1544)
assay overview: LTEA_HepaRG_CYP1A2: Life Technologies and Expression Analysis (LTEA) Assay for Cytochrome P450 (CYP1A2) using HepaRG (AID 2283479);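 on AC50: TaqMan qRT-PCR transcript level normalized to ACTB GAPDH and POLR2A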
test settings: mRNA level, 48 h; actives raise or lower the signal
Active and inactive are the calls of the source. Rule for the calls: active = hit-call score of the fitted dose curve at least 0.9, where 1 is the maximum; inactive = score below 0.9.
property name: AC50

Observe how each entry below is paired with its result.
| molecule | assay value |
| --- | --- |
| CC(C)(C)C(O)/C(=C\c1ccc(Cl)cc1Cl)n1cncn1 (stereo not drawn) | inactive |
| CNC(=O)/C=C(\C)OP(=O)(OC)OC | inactive |
| O=C(NC(=O)c1c(F)cccc1F)Nc1ccc(OC(F)(F)C(F)OC(F)(F)F)c(Cl)c1 (stereo not drawn) | 12.3 µM (active) |
| CNC(=O)Oc1cccc(N=CN(C)C)c1 | inactive |
| CC1(c2ccc(Oc3ccccc3)cc2)OC(=O)N(Nc2ccccc2)C1=O (stereo not drawn) | 50.2 µM (active) |

Form field AC50, entry `CCCN(CCOc1c(Cl)cc(Cl)cc1Cl)C(=O)n1ccnc1` : 3.86 µM (active)

Form field AC50, entry `N#CN` : inactive

Form field AC50, entry CCC(C)Nc1c([N+](=O)[O-])cc(C(C)(C)C)cc1[N+](=O)[O-] (stereo not drawn) : inactive
